For each record, write down the corresponding ƩFICI50.
- Tested on: L. infantum promastigotes
- ASSAY TEXT: Drug combination (FICI) assay on L. infantum promastigotes
- Type: cell-based, Leishmania infantum
- RUN CONDITIONS: combination with MIL, 48 h
# print the numeric value only

Prompt: Given O=C(O)C[Se]C(=O)C1CC1 , respond with its ƩFICI50.
Response: 0.98

Prompt: Given O=C(O)C[Se]C(=O)C1CCC1 , respond with its ƩFICI50.
Response: 0.44

Prompt: Given O=C(O)C[Se]C(=O)C1CCCCC1 , respond with its ƩFICI50.
Response: 0.40

Prompt: Given CCCCCCC(=O)[Se]CC(=O)O , respond with its ƩFICI50.
Response: 0.68

----------
- ASSAY TEXT: Cytotoxicity in PMA-differentiated THP-1 macrophages (MTT assay)
- Assay type: cell-based
- RUN CONDITIONS: human, pH 7.2, 48 h of treatment, read-out: THP-1 Cells CC50
REPORTED METRIC: CC50 at 48 h (µM)
API: value field is a number in µM; no unit string.

Prompt: Given O=C(O)C[Se]C(=O)C1CCCCC1 , respond with its CC50 at 48 h.
Response: 147

Prompt: Given NC[C@@H]1O[C@H](O[C@H]2[C@@H](O)[C@H](O[C@@H]3[C@@H](O)[C@H](N)C[C@H](N)[C@H]3O[C@H]3O[C@H](CO)[C@@H](O)[C@H](O)[C@H]3N)O[C@@H]2CO)[C@H](N)[C@@H](O)[C@@H]1O [PMN, paromomycin, reference compound] , respond with its CC50 at 48 h.
Response: 39

Prompt: Given CCCCCCC(=O)[Se]CC(=O)O , respond with its CC50 at 48 h.
Response: 173

Prompt: Given O=C(O)C[Se]C(=O)C1CCC1 , respond with its CC50 at 48 h.
Response: 178

Prompt: Given CCCCCCCCCCCCCCCCOP(=O)([O-])OCC[N+](C)(C)C [MIL, miltefosine, reference compound] , respond with its CC50 at 48 h.
Response: 13.3

Prompt: Given O=C(O)C[Se]C(=O)C1CC1 , respond with its CC50 at 48 h.
Response: 211

----------
For each record, write down the corresponding IC50.
- System: L. major promastigotes
- ASSAY TEXT: Leishmanicidal activity against L. major promastigotes (MTT assay)
- Assay type: cell-based, Leishmania major
- RUN CONDITIONS: Leishmania major; L. major promastigotes, 48 h incubation, MTT
API: value field is a number in µM; no unit string.

Prompt: Given O=C(O)C[Se]C(=O)C1CC1 [A5] , respond with its IC50.
Response: 113

Prompt: Given COC(=O)CSC(=O)C1CC1 [D5] , respond with its IC50.
Response: 81.8

Prompt: Given COC(=O)CSC(=O)C1CCC1 [D6] , respond with its IC50.
Response: 83.4

Prompt: Given CCCCCCC(=O)SCC(=O)OC [D4, Methyl 2-(heptanoylthio)acetate] , respond with its IC50.
Response: 87.3

----------
- System: L. infantum promastigotes
- ASSAY TEXT: Drug combination (FICI) assay on L. infantum promastigotes
- Format: cell-based, Leishmania infantum
- RUN CONDITIONS: combination with PMN, 48 h
For each record, write down the corresponding ƩFICI50.
# print the numeric value only

Prompt: Given CCCCCCC(=O)[Se]CC(=O)O [A4, 2-(heptanoylselanyl)acetic acid] , respond with its ƩFICI50.
Response: 0.68

Prompt: Given O=C(O)C[Se]C(=O)C1CCC1 [A6] , respond with its ƩFICI50.
Response: 0.54

Prompt: Given O=C(O)C[Se]C(=O)C1CCCCC1 [A8] , respond with its ƩFICI50.
Response: 0.52

Prompt: Given O=C(O)C[Se]C(=O)C1CC1 [A5] , respond with its ƩFICI50.
Response: 0.61
